Test system: Peroxisome proliferator-activated receptor alpha (Homo sapiens, UniProt Q07869)
Sequence (Q07869 whole entry): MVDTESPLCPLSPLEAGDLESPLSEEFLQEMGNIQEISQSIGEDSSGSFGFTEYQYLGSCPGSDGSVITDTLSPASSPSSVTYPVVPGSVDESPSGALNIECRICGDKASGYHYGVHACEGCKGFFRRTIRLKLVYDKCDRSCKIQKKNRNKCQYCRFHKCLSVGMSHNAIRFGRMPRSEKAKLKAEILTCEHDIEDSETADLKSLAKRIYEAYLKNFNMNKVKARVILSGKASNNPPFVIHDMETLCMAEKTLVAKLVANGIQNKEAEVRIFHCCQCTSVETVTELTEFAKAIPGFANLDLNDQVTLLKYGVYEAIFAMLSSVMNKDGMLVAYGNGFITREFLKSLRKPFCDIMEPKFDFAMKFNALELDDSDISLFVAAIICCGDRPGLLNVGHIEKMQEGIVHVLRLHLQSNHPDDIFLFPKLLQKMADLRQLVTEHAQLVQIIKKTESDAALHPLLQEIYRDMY
Assay comment: Binding affinity at human PPAR alpha
Observed property: EC50 (µM)
Supply the numeric figure in µM, leaving out any unit text.

Below are worked cases with known answers.
>>> quantitative_result("Cc1oc(-c2ccccc2)nc1CCOc1ccc(OCC(=O)O)cc1")
2.75
>>> quantitative_result("Cc1oc(-c2ccccc2)nc1CCOc1ccc(OC(C)(C)C(=O)O)cc1")
0.717
>>> quantitative_result("Cc1oc(-c2ccc(Br)cc2)nc1CCOc1ccc(OC(C)(C)C(=O)O)cc1")
0.0619
>>> quantitative_result("Cc1oc(-c2ccccc2)nc1CCOc1ccc(OC(C)C(=O)O)cc1 (stereo unspecified)")
0.625
>>> quantitative_result("Cc1oc(-c2ccc(-c3ccccc3)cc2)nc1CCOc1ccc(OC(C)(C)C(=O)O)cc1")
0.149

Turning now to a further record.
QUERY: For Cc1oc(-c2ccccc2)nc1CCOc1ccc(CC2SC(=O)NC2=O)cc1 (stereo unspecified) , what is its reported EC50?
RESULT: 0.771
